Reported Kd values are given for each entry in this list.
# target.or.system: HLA-B*40:01
# assay.procedure: IEDB peptide-MHC binding, purified MHC/competitive/radioactivity; filed as Kd, often an IC50 or EC50 that approximates it; bounds were set here for any values at or beyond the usual limits of such assays
# condition: source organism: SARS coronavirus Tor2
measure.name: Kd

1) EEGNLLDSYF ≥ 41.8 µM
2) DEFIQRYKL ≥ 23.9 µM
3) TENLVIEGPT ≥ 42.9 µM

---

# target.or.system: HLA-A*02:01
# assay.procedure: IEDB peptide-MHC binding, purified MHC/competitive/fluorescence; bounds were set here for any values at or beyond the usual limits of such assays
# condition: source organism: Zaire ebolavirus
Item-by-item account of IC50
measure.name: IC50

1) GKRSNTTGK ≥ 14300 µM
2) DKIDQIIHD ≥ 387 µM
3) VTLRKERLA ≥ 360 µM
4) HILQKTERG ≥ 99.6 µM
5) WMAPSLTES 6.45 µM
6) TTFAEGVVA 50.2 µM
7) GIYIEGLMH ≥ 180 µM
8) AATEAEKQL ≥ 436 µM
9) DFLLQRWGG 16.8 µM
10) ITGGRRTRR ≥ 177 µM
11) TSPRMLTPI ≥ 684 µM
12) DNSTHNTPV ≥ 456 µM
13) LEHGLFPQL ≥ 73.2 µM
14) KIDQIIHDF 66.4 µM
15) PWLTEKEAM ≥ 216 µM
16) YHMMKDEPV 42.3 µM
17) VIPVYQVNN ≥ 340 µM
18) VIYRGTTFA 1.53 µM
19) AHGSTLAGV 59.9 µM

---

# target.or.system: HLA-A*24:02
# assay.procedure: IEDB peptide-MHC binding, purified MHC/competitive/fluorescence; bounds were set here for any values at or beyond the usual limits of such assays
# condition: source organism: Zaire ebolavirus
pIC50: −log10 of the molar value.
measure.name: pIC50

1) VYQVNNLEE ≤ 3.60
2) NAPDDLVLF ≤ 3.97
3) SKSTDFLDP ≤ 3.23
4) DQEKKILMN ≤ 3.52
5) EDPSSGYYS ≤ 3.73
6) EAMNEENRF ≤ 3.83
7) YRGTTFAEG ≤ 3.83

---

// reported pKd for each item listed
# target.or.system: HLA-A*33:01
# assay.procedure: IEDB peptide-MHC binding, purified MHC/competitive/radioactivity; filed as Kd, often an IC50 or EC50 that approximates it; bounds were set here for any values at or beyond the usual limits of such assays
# condition: source organism: SARS coronavirus Tor2
pKd: −log10 of the molar value.
measure.name: pKd

1) AVIIRGHLR ≤ 4.55
2) TVAYFNMVY ≤ 4.28
3) AQALNTLVK ≤ 4.54

---

# target.or.system: HLA-B*51:01
# assay.procedure: IEDB peptide-MHC binding, purified MHC/competitive/radioactivity; filed as Kd, often an IC50 or EC50 that approximates it; bounds were set here for any values at or beyond the usual limits of such assays
# condition: source organism: Dengue virus 2 Jamaica/1409/1983
measure.name: Kd

1) MPSMKRFRRE ≥ 69.6 µM
2) LPAIVREAIK ≥ 69.6 µM
3) MVQADSGCVV ≥ 30.5 µM

---

This section presents sequences with their documented pKd values.
# target.or.system: HLA-A*33:01
# assay.procedure: IEDB peptide-MHC binding, purified MHC/competitive/radioactivity; filed as Kd, often an IC50 or EC50 that approximates it; bounds were set here for any values at or beyond the usual limits of such assays
# condition: source organism: Vaccinia virus WR
pKd: −log10 of the molar value.
measure.name: pKd

1) NSVANRSKQK ≤ 4.15
2) YLGVNNLPY ≤ 4.11
3) KIEEIEKVEK ≤ 4.33

---

# target.or.system: HLA-A*02:03
# assay.procedure: IEDB peptide-MHC binding, purified MHC/competitive/radioactivity; filed as Kd, often an IC50 or EC50 that approximates it; bounds were set here for any values at or beyond the usual limits of such assays
# condition: source organism: Vaccinia virus WR
pKd: −log10 of the molar value.
measure.name: pKd

1. TIFDIVSKCI 7.03
2. MAAAKTPVIV 6.81
3. SMYGKAFNHA 9.03
4. ITFLRPVLKA 6.14
5. YASLTTIGT 6.84
6. GIAIFNNRNL 5.69
7. VADLSARNKL 5.67
8. EVGTNFGTI 5.71
9. NIGCAVNTPV 7.52

---

# target.or.system: HLA-B*44:03
# assay.procedure: IEDB peptide-MHC binding, purified MHC/competitive/radioactivity; filed as Kd, often an IC50 or EC50 that approximates it; bounds were set here for any values at or beyond the usual limits of such assays
# condition: source organism: SARS coronavirus Tor2
Catalogue of Kd values
measure.name: Kd (nM)

1. SELAKGVAL 175
2. EEGNLLDSYF 11.7
3. REVLSDREL 1120

---

Listed below: Kd values for each entry.
# target.or.system: HLA-A*11:01
# assay.procedure: IEDB peptide-MHC binding, purified MHC/competitive/radioactivity; filed as Kd, often an IC50 or EC50 that approximates it; bounds were set here for any values at or beyond the usual limits of such assays
# condition: source organism: Vaccinia virus WR
measure.name: Kd (nM)

1) RVYEALYYV 80.2
2) NLLVQYGAK 12600
3) QLEDSEYLFR 79.1
4) NSVANRSKQK 525
5) SVQLSNNKY 33.1
6) DLLNVTYNIK 302
7) AMSFDGFIR 327
8) YLGVNNLPY 1490
9) IIGPMFSGK 1.79
10) LLPSTDVNK 5540
11) AFNDDGIYIR 18100
12) SSVQLSNNK 5.21
13) LLMHLVSLYK 0.379

---

# target.or.system: HLA-A*03:01
# assay.procedure: IEDB peptide-MHC binding, purified MHC/competitive/radioactivity; filed as Kd, often an IC50 or EC50 that approximates it; bounds were set here for any values at or beyond the usual limits of such assays
# condition: source organism: Vaccinia virus WR
measure.name: Kd

1) MAVEVGSIR ≥ 78 µM
2) NFITKEIKNR ≥ 70.1 µM
3) TTDDLVKSY ≥ 53 µM
4) IMNLEMIDER ≥ 70.1 µM
5) ELGELIGVNY ≥ 70.1 µM
6) AFNDDGIYIR ≥ 70.1 µM

---

# target.or.system: HLA-A*02:06
# assay.procedure: IEDB peptide-MHC binding, purified MHC/competitive/radioactivity; filed as Kd, often an IC50 or EC50 that approximates it; bounds were set here for any values at or beyond the usual limits of such assays
# condition: source organism: Vaccinia virus WR
measure.name: Kd (µM)

1) TIFDIVSKCI 0.701
2) SLVKESMASL 1.43
3) PVVYHDDDNT 1.35

---

# target.or.system: HLA-A*11:01
# assay.procedure: IEDB peptide-MHC binding, purified MHC/competitive/radioactivity; filed as Kd, often an IC50 or EC50 that approximates it; bounds were set here for any values at or beyond the usual limits of such assays
# condition: source organism: Vaccinia virus WR
measure.name: Kd

1. LFMEMFFDY ≥ 59.5 µM
2. NFITKEIKNR ≥ 69.8 µM
3. YVPSAEDNY ≥ 77.9 µM
4. LLACTDPSER ≥ 37 µM
5. ELGELIGVNY ≥ 69.8 µM
